Where these numbers come from: PubChem BioAssay (EPA / NIEHS)

# Tested on: rabbit Platelet Activating Factor Receptor (PAF), gene 100354046
# Assay: NVS_GPCR_rabPAF: NovaScreen (NVS) G Protein-Coupled Receptor Assay for rabbit Platelet Activating Factor Receptor (PAF) (AID 2283287)
Results filed as inconclusive are left out. Active and inactive are the calls of the source. How the source made its calls: active means hit-call score of the fitted dose curve at least 0.9, where 1 is the maximum; inconclusive means response in the unintended direction; inactive means score below 0.9.
Can you answer with just one of these options? label 1 (active), label 0 (inactive)

Hi, sorry to bother you, what did the test record for CCCCCCCCCC ?
label 0

Same lookup for CCCOc1ccc(S(=O)(=O)N2CCN(CC)CC2)cc1-c1nc2c(CC)n(Cc3ccccn3)nc2c(=O)[nH]1 , please.
label 1

Same lookup for COc1cc2c(c(OC)c1OC)-c1ccc(OC)c(=O)cc1[C@@H](NC(C)=O)CC2 , please.
label 1

Same lookup for C=CCc1cc(S(=O)(=O)c2ccc(O)c(CC=C)c2)ccc1O , please.
label 1
